target_desc: T1, CXCR4 D97E + V112L (human, UniProt P61073-1 1-352, D97E | V112L)
T1 construct: human CXCR4, isoform 1 or b; also called D97E plus V112L; source: 293T cells, transiently transfected (pcDNA3.1 CXCR4-IRES-eGFP), on cells
protocol_description: flow cytometry on cells; 12G5 antibody competition on 293T cells transiently transfected with CXCR4 wt or mutants (IRES-eGFP vector), eGFP-positive cells gated; serially diluted peptide with a constant concentration of CXCR4 antibody clone 12G5, 2 h; bound antibody read; IC50 by nonlinear regression
condition_context: one partner purified

| binder | IC50 |
| --- | --- |
| LVRYTKKVPQVSTPTL (source: synthetic peptide (Fmoc solid-phase synthesis, HPLC-purified)) [EPI-X4 (Alb408-423)] | 223 µM |
